Source listed as paper PMC12566593.

- assay protocol: Equilibrium solubility, saturation shake-flask, centrifugation as phase separation
- test settings: Britton-Robinson buffer, pH 2, Equilibrium solubility S stir, pH 2.0; continuously stirred, no sedimentation; 10,000 rpm, 5 min
measurement label: solubility thermodynamic at 24 h (µg/mL)
# value in µg/mL; strip the unit string

input: Look up and report measured solubility thermodynamic at 24 h for this entry: O=C(O)Cc1ccccc1Nc1c(Cl)cccc1Cl [DICL-NA, Diclofenac sodium]
output: 1.82

====

- assay protocol: Equilibrium solubility, saturation shake-flask, sedimentation as phase separation (reference, standard protocol)
- test settings: Britton-Robinson buffer, pH 10, Solubility (reference), pH 10.0; 6 h stirring, 18 h sedimentation; 25 °C
measurement label: solubility (mg/mL)
# value in mg/mL; strip the unit string

input: Look up and report measured solubility for this entry: O=C(O)Cc1ccccc1Nc1c(Cl)cccc1Cl [DICL-NA, Diclofenac sodium]
output: 9.47

====

- assay protocol: Equilibrium solubility, saturation shake-flask, centrifugation as phase separation
- test settings: Britton-Robinson buffer, 25 °C, pH 3, aqueous buffer, thermodynamic from solid, Equilibrium solubility S sed, pH 3.0; sedimented before centrifugation; 5000 rpm, 20 min
Counter-ions that a name gives are not always drawn.
measurement label: solubility thermodynamic (mg/mL)
# value in mg/mL; strip the unit string

input: Look up and report measured solubility thermodynamic for this entry: COc1ccc(Cc2nccc3cc(OC)c(OC)cc23)cc1OC [PAP-HCL, papaverine hydrochloride]
output: 37.1

====

- assay protocol: Equilibrium solubility, saturation shake-flask, centrifugation as phase separation
- test settings: Britton-Robinson buffer, pH 10, Equilibrium solubility S sed, pH 10.0; sedimented before centrifugation; 5000 rpm, 20 min
Where a name gives a salt, the structure may show the parent alone.
measurement label: solubility thermodynamic (µg/mL)
# value in µg/mL; strip the unit string

input: Look up and report measured solubility thermodynamic for this entry: COc1ccc(Cc2nccc3cc(OC)c(OC)cc23)cc1OC [PAP-HCL, papaverine hydrochloride]
output: 14.4

====

- assay protocol: Equilibrium solubility, saturation shake-flask, centrifugation as phase separation
- test settings: Britton-Robinson buffer, 25 °C, pH 3, aqueous buffer, thermodynamic from solid, Equilibrium solubility S stir, pH 3.0; continuously stirred, no sedimentation; 5000 rpm, 10 min
Where a name gives a salt, the structure may show the parent alone.
measurement label: solubility thermodynamic at 24 h (mg/mL)
# value in mg/mL; strip the unit string

input: Look up and report measured solubility thermodynamic at 24 h for this entry: COc1ccc(Cc2nccc3cc(OC)c(OC)cc23)cc1OC [PAP-HCL, papaverine hydrochloride]
output: 41.1

====

- assay protocol: Equilibrium solubility, saturation shake-flask, centrifugation as phase separation
- test settings: Britton-Robinson buffer, pH 4, Equilibrium solubility S stir, pH 4.0; continuously stirred, no sedimentation; 5000 rpm, 10 min
measurement label: solubility thermodynamic at 24 h (µg/mL)
# value in µg/mL; strip the unit string

input: Look up and report measured solubility thermodynamic at 24 h for this entry: O=C(O)Cc1ccccc1Nc1c(Cl)cccc1Cl [DICL-NA, Diclofenac sodium]
output: 2.69

====

- assay protocol: Equilibrium solubility, saturation shake-flask, centrifugation as phase separation
- test settings: Britton-Robinson buffer, pH 7.4, Equilibrium solubility S sed, pH 7.4; sedimented before centrifugation; 5000 rpm, 5 min
measurement label: solubility thermodynamic (µg/mL)
# value in µg/mL; strip the unit string

input: Look up and report measured solubility thermodynamic for this entry: CC(=O)[C@H]1CC[C@H]2[C@@H]3CCC4=CC(=O)CC[C@]4(C)[C@H]3CC[C@]12C [PROG, progesterone]
output: 10.9
